Test system: OV90
testMethodNotes: Primary qHTS to identify gynecologic anti-cancer compounds using libraries of approved drugs and bioactive compounds (AID 1345084); note: nearly all actives have a fitted effect of over 55% in size
studyConditions: Gynecologic cancer cell panel viability, ATPlite luminescence, 48 h; series mostly up to 57.5 µM
Inconclusive results are not listed. The source made the active and inactive calls. Calls come from the whole dose curve; as a rule, active = well fitted cell-killing curve with a large enough effect; inconclusive = small, poorly fitted or top-dose-only effect, or effect the other way; inactive = flat fitted curve, though single readings scatter.
Outcomes: active, inactive

CC(C)(C)c1ccc(C(O)CCCN2CCC(C(O)(c3ccccc3)c3ccccc3)CC2)cc1 (stereo unspecified); inactive
CC(C)NCC(O)COc1cccc2[nH]ccc12 (stereo unspecified); inactive
COc1ncc(-c2ccc3nccc(-c4ccnnc4)c3c2)cc1NS(=O)(=O)c1ccc(F)cc1F; active
COc1ccc2c(Oc3ccc(NC(=O)c4c(C)n(CC(C)(C)O)n(-c5ccccc5)c4=O)cc3F)ccnc2c1; inactive
CC(C)n1nc(-c2ccc3oc(N)nc3c2)c2c(N)ncnc21; active
O=c1[nH]cnc2c1ncn2[C@H]1CC[C@@H](CO)O1; inactive

---

testMethodNotes: Cytotoxicity counterscreen for NFkB agonists and antagonists (AID 624476);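 note: cells exposed to compound for 48 hours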
studyConditions: NFkB reporter cell line viability counterscreen; series mostly up to 46.1 µM
Records with an inconclusive call do not appear. Calls of active or inactive are those of the source. Calls come from the whole dose curve; as a rule, active = well fitted curve in the direction sought with a large enough effect; inconclusive = small, poorly fitted or top-dose-only effect, or another doubt; inactive = no such curve, though single readings can be large or run the other way.
Possible outcomes: yes = active, no = inactive

O=C(N[C@@H](c1ccccc1)[C@@H]1CCCCN1)c1cccc(C(F)(F)F)c1Cl; no
O=C1C(Cl)=C(NCCN2CCOCC2)C(=O)c2ncccc21; yes
Cc1nc(N)sc1-c1ccnc(Nc2ccc(N3CCOCC3)cc2)n1; no
CN(C)Cc1ccc(-c2nc3cccc4c3n2CCNC4=O)cc1; no
O=c1cc(N2CCOCC2)oc2c(-c3cccc4c3sc3ccccc34)cccc12; yes
OC[C@H]1O[C@@H](n2cnc3c2NC=NC[C@@H]3O)C[C@H]1O; no
CC(C)C(=O)Nc1ncc(-c2cc(C(F)F)nn2-c2c(Cl)cccc2Cl)s1; no

---

targetOfAssay: Single-stranded DNA cytosine deaminase (Homo sapiens)
testMethodNotes: Validation qHTS assay for inhibitors of Activation Induced Cytidine Deaminase (AID): AID signal (AID 1347429); note: % is set by controls: 0 for no effect and ±100 for the full control effect
studyConditions: Recombinant AID, FRET ssDNA deamination with UDG, fluorescence; series mostly up to 115 µM
Calls of active or inactive are those of the source. The call rests on the fitted dose curve; in most records, active means well fitted inhibition curve with a large enough effect; inconclusive means small, poorly fitted or top-dose-only effect; inactive means no such curve, though single readings can be large or run the other way.
assayReadout: outcome

CC(=O)O[C@]1(C(C)=O)CC[C@H]2[C@@H]3C=C(Cl)C4=CC(=O)[C@@H]5C[C@@H]5[C@]4(C)[C@H]3CC[C@@]21C; inactive
Clc1ccc(C(c2ccc(Cl)cc2)n2cc[n+](CC(OCc3ccc(Cl)cc3Cl)c3ccc(Cl)cc3Cl)c2)cc1 (stereo not drawn); inactive
O=C1NCC2(CCN(CCc3ccccc3)CC2)O1; inactive

---

testMethodNotes: Quantitative High-Throughput drug screen in 47 multiple myeloma cell lines against the NCATS MIPE library collection: MOLP8_DSMZ cell viability assay (AID 1918977); note: nearly all actives have a fitted effect of over 45% in size
studyConditions: MOLP8 myeloma viability, CellTiter-Glo ATP luminescence, 48 h; series mostly up to 45.8 µM
Results filed as inconclusive are left out. The source made the active and inactive calls. The call rests on the fitted dose curve; in most records, active means well fitted cell-killing curve with a large enough effect; inconclusive means small, poorly fitted or top-dose-only effect, or effect the other way; inactive means no such curve, though single readings can be large or run the other way.
Outcome codes: Yes for active, No for inactive

CC(C)(C)NC(=O)Nc1cccc(Nc2ncc(F)c(NC(C)(C)CO)n2)c1; No
CC(C)(C)OC(=O)N[C@H]1CCCCCC=C[C@@H]2C[C@@]2(C(=O)NS(=O)(=O)C2CC2)NC(=O)[C@@H]2C[C@@H](OC(=O)N3Cc4cccc(F)c4C3)CN2C1=O; No
COc1cc(Nc2ncc(F)c(Nc3ccc4c(n3)NC(=O)C(C)(C)O4)n2)cc(OC)c1OC; Yes
O=C(Nc1cccc(Br)c1)c1cccc(S(=O)(=O)N2CCCCCC2)c1; No

---

testMethodNotes: Quantitative High-Throughput drug screen in 47 multiple myeloma cell lines against the NCATS MIPE library collection: AMO1_DSMZ cell viability assay (AID 1918927; note: nearly all actives have a fitted effect of over 30% in size)
studyConditions: AMO1 myeloma cells viability, CellTiter-Glo ATP luminescence, 48 h; series mostly up to 45.8 µM
From the text: PI: Beverly A. Mock Ph.D. Laboratory of Cancer Biology and Genetics, Center for Cancer Research, National Cancer Institute, National Institute of Health, Bethesda, Maryland […] 5; Detector; 425V; Luminescence; Viewlux PerkinElmer. […] 1. […] Briefly, the corresponding myeloma cell lines were screened in 1,536-well plates with 500 cells, 5-uL per well for inhibition of cell viability (assessed by measuring ATP levels with CellTiterGlo). […]
Results filed as inconclusive are left out. The source made the active and inactive calls. Calls follow the shape of the dose curve; as a rule, active = well fitted cell-killing curve with a large enough effect; inconclusive = small, poorly fitted or top-dose-only effect, or effect the other way; inactive = no such curve, though single readings can be large or run the other way.
Outcomes: label 1 = active, label 0 = inactive

COc1ccc2cccc(CCNC(C)=O)c2c1; label 0
CC(=NNC(=S)N1CCC1)c1ccccn1; label 1
O=c1c(O)c(-c2ccc(O)cc2)oc2cc(O)cc(O)c12; label 1
Nc1ncnc2c1ncn2[C@@H]1O[C@@H](CO)[C@H](O)[C@H]1O; label 0
O=c1cc(-c2cccc3c2Sc2ccccc2S3)oc(N2CCOCC2)c1; label 1
N#CC(=C(N)Sc1ccccc1N)C(C#N)=C(N)Sc1ccccc1N; label 1
CON=C(C(=O)N[C@@H]1C(=O)N2C(C(=O)OCOC(=O)C(C)(C)C)=C(C=Cc3scnc3C)CS[C@H]12)c1csc(N)n1; label 0
CCCCCCCCCCCC1=C(O)C(=O)C=C(O)C1=O; label 1

---

testMethodNotes: Quantitative High-Throughput drug screen in 47 multiple myeloma cell lines against the NCATS MIPE library collection: XG6_PLB cell viability assay (AID 1919865); note: nearly all actives have a fitted effect of over 40% in size
studyConditions: XG6 myeloma viability, CellTiter-Glo ATP luminescence, 48 h; series mostly up to 45.8 µM
Records with an inconclusive call do not appear. Active and inactive are the calls of the source. The call rests on the fitted dose curve; in most records, active means well fitted cell-killing curve with a large enough effect; inconclusive means small, poorly fitted or top-dose-only effect, or effect the other way; inactive means no such curve, though single readings can be large or run the other way.
Classes used: active, inactive

NS(=O)(=O)c1cccc2c1C(=O)c1cccc(O)c1C2=O; active
O=C(OCC#CCSc1nnc(-c2cccc3ccccc23)o1)c1cc2ccccc2s1; inactive
CS(=O)c1ccc(-c2nc(-c3ccc(F)cc3)c(-c3ccncc3)[nH]2)cc1 (stereo not drawn); active
C[C@]12CCC3c4ccc(O)cc4CCC3C1CCC2=O (stereo partly drawn); inactive
O=c1c(-c2ccc(O)cc2)coc2cc(O[C@@H]3O[C@H](CO)[C@H](O)[C@H](O)[C@H]3O)ccc12; inactive
O=c1c(-c2ccc(O)cc2)coc2cc(O)ccc12; inactive
CC1(C)S[C@H]2[C@H](NC(=O)[C@@H](N)c3ccc(O)cc3)C(=O)N2[C@@H]1C(=O)O; active
Cc1ccc(F)c(NC(=O)Nc2ccc(-c3cccc4[nH]nc(N)c34)cc2)c1; active

---

testMethodNotes: Quantitative High-Throughput drug screen in 47 multiple myeloma cell lines against the NCATS MIPE library collection: KMS27_JCRB cell viability assay (AID 1918970); note: nearly all actives have a fitted effect of over 30% in size
studyConditions: KMS27 myeloma cells, CellTiter-Glo ATP viability, 48 h; series mostly up to 45.8 µM
Inconclusive results are not listed. The source made the active and inactive calls. Calls come from the whole dose curve; as a rule, active = well fitted cell-killing curve with a large enough effect; inconclusive = small, poorly fitted or top-dose-only effect, or effect the other way; inactive = no such curve, though single readings can be large or run the other way.
Labels: active, inactive

CCNc1cc(NC2CCC(O)CC2)nc(Nc2ccc3c(ccn3Cc3ccccc3)c2)n1 (stereo not drawn); active
Cc1cc(OCCCc2c(C(=O)O)n(Cc3cccnc3)c3c(-c4c(COc5ccc(N6CCN([S+](C)(=O)[O-])CC6)cc5)nn(C)c4C)cccc23)cc(C)c1Cl; inactive
NC1=N[C@@]2(c3cc(NC(=O)c4ccc(F)cn4)ccc3F)COC[C@@H]2CS1; active
CN(C)CCC=C1c2ccccc2COc2ccc(CC(=O)O)cc21; inactive
CO[C@@H](C(=O)N1Cc2[nH]nc(NC(=O)c3ccc(N4CCN(C)CC4)cc3)c2C1)c1ccccc1; active
C[C@H](NC(=O)C(=O)Nc1ccccc1C(C)(C)C)C(=O)N[C@@H](CC(=O)O)C(=O)COc1c(F)c(F)cc(F)c1F; active
COc1cc(Nc2ncc(F)c(Nc3ccc4c(n3)NC(=O)C(C)(C)O4)n2)cc(OC)c1OC; active
CC(C)(C)OC(=O)N[C@H]1CCCCCC=C[C@@H]2C[C@@]2(C(=O)NS(=O)(=O)C2CC2)NC(=O)[C@@H]2C[C@@H](OC(=O)N3Cc4cccc(F)c4C3)CN2C1=O; inactive
CO[C@H]1C[C@@H]2CC[C@@H](C)[C@@](O)(O2)C(=O)C(=O)N2CCCC[C@@H]2C(=O)O[C@H]([C@H](C)C[C@@H]2CC[C@H](OCCO)[C@H](OC)C2)CC(=O)[C@H](C)C=C(C)[C@@H](O)[C@@H](OC)C(=O)[C@H](C)C[C@H](C)C=CC=CC=C1C; active
CC(C)(C)Cn1c(N)nc2ccc(-c3[nH]c(C(C)(C)C)nc3-c3ccc(F)cc3)nc21; inactive
C[N+]1(C)[C@@H]2CC(OC(=O)[C@H](CO)c3ccccc3)C[C@H]1[C@H]1O[C@@H]12 (stereo partly drawn); inactive
CN1[C@@H]2CCC[C@@H]1CC(NC(=O)c1nn(C)c3ccccc13)C2 (stereo partly drawn); inactive
O=C(NCc1ccccc1)c1csc(Nc2ccncn2)n1; active

---

testMethodNotes: High-throughput drug toxicity screening in the BPDCN cell line Cal-1 (AID 1224825);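 note: cells exposed to compounds for 48 h; 100% = DMSO and 0% = bortezomib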
studyConditions: Cal-1 BPDCN cell viability, qHTS; at 45.8 µM (top of the series) unless noted
Measured viability (% of control) values are reported for all entries that follow.
assayReadout: viability (% of control) (%)

COCCCCC(=NOCCN)c1ccc(C(F)(F)F)cc1; 88.3
CC=C(C)C(=O)O[C@H]1C(C)=C[C@]23C(=O)[C@@H](C=C(CO)[C@@H](O)[C@]12O)[C@H]1[C@@H](C[C@H]3C)C1(C)C; 12.7
Clc1cc(Cl)cc(CNc2ncncc2-c2ccc3c(c2)OCO3)c1; 11.1
O=C(NC1CCOCC1)c1ccc(-c2cc(-c3cn[nH]c3-c3ccccn3)ccn2)cc1; 131
CC(=O)Oc1cc2c(s1)CCN(C(C(=O)C1CC1)c1ccccc1F)C2 (stereo not given); 18.3
NC(=O)[C@@H](CCC(F)(F)F)N(Cc1ccc(-c2ncon2)cc1F)S(=O)(=O)c1ccc(Cl)cc1; 93.2
CN[C@@H](C)C(=O)N[C@H]1CN(C(=O)CC(C)C)CC[C@H]2CC[C@@H](C(=O)NC(c3ccccc3)c3ccccc3)N2C1=O; 9.02
CC1(C)CCC(CN2CCN(c3ccc(C(=O)NS(=O)(=O)c4ccc(NCC5CCOCC5)c([N+](=O)[O-])c4)c(Oc4cnc5[nH]ccc5c4)c3)CC2)=C(c2ccc(Cl)cc2)C1; 24.1
CO[C@H]1C(=O)[C@]2(C)[C@@H](OC)C[C@H]3OC[C@@]3(OC(C)=O)[C@H]2[C@H](OC(=O)c2ccccc2)[C@]2(O)C[C@H](OC(=O)[C@H](O)[C@@H](NC(=O)OC(C)(C)C)c3ccccc3)C(C)=C1C2(C)C; 13
Cc1ccc(Nc2cc(-c3cccc(N4C(=O)c5ccccc5C4=O)c3)ncn2)cc1NS(C)(=O)=O; 13.1
CC1CCC(C(=O)N(c2cc(C#CC(C)(C)C)sc2C(=O)O)C2CCC(O)CC2)CC1 (stereo not given); 92
Cc1c[nH]c(C=C2C(=O)Nc3ccccc32)c1CCC(=O)O; 55.9
CC(=Cc1ccccc1)C=C1SC(=S)N(CC(=O)O)C1=O; 125
COc1ccc(Cc2nccc3cc(OC)c(OC)cc23)cc1OC; 96.9
CCn1c(C(=O)N(C2CC2)C2CC2)cc2c3c(ncn3C)c(Nc3cc(C)n(C)n3)nc21; 90.8
COc1ccc(C2Sc3ccccc3N(CCN(C)C)C(=O)C2OC(C)=O)cc1 (stereo not given); 90
Cc1nc(N)sc1-c1ccnc(Nc2ccc(N3CCOCC3)cc2)n1; 6.5
CC(C)(C)Cn1c(N)nc2ccc(-c3[nH]c(C(C)(C)C)nc3-c3ccc(F)cc3)nc21; 59.3
Cc1ccn(-c2ccc(-c3ncco3)cc2)c(=O)c1-c1ccc2nc(N)ncc2c1; 62.2
O=C1NC(=O)C(=Cc2cccc(C(F)(F)F)c2)S1; 110
NC(=O)c1ccc2nc(-c3ccc(Oc4ccc(Cl)cc4)cc3)[nH]c2c1; 38
O=C(CCc1ccc(O)cc1)c1c(O)cc(O)cc1O[C@@H]1O[C@H](CO)[C@H](O)[C@H](O)[C@H]1O; 107
CC1(C)CCC2=C(O1)c1ccccc1C(=O)C2=O; 4.06
COc1ccc(-c2coc3cc(O)cc(O)c3c2=O)cc1; 86.9
CN(C)c1cc(NC(=O)CNC(C)(C)C)c(O)c2c1C[C@@H]1C[C@H]3[C@H](N(C)C)C(=O)C(C(N)=O)=C(O)[C@@]3(O)C(=O)C1=C2O; 97.2
O=c1cc(N2CCOCC2)oc2c(-c3cccc4c3sc3ccccc34)cccc12; 3.76
Clc1ccc(-c2nc3sccn3c2C=NOCc2ccc(Cl)c(Cl)c2)cc1; 116
COc1cc(N2CCC(N3CCN(C)CC3)CC2)ccc1Nc1ncnc(Nc2ccccc2S(=O)(=O)C(C)C)n1; 6.26
COC1CCC(N(C(=O)C2CCC(C)CC2)c2cc(C3=CCCCC3)sc2C(=O)O)CC1 (stereo not given); 89.2
CCS(=O)(=O)N1CC(CC#N)(n2cc(-c3ncnc4[nH]ccc34)cn2)C1; 17.5

Value source: PubChem BioAssay (NCATS)
